Reference source: patent US20030068675

Target: T1, ZFP SBS#1331 (synthetic)
T1 chain: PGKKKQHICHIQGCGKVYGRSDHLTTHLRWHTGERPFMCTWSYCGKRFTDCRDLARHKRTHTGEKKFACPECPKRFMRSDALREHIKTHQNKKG
Experiment: EMSA
Details: tags: MBP fusion
Outcome measure: Kd (nM)
Give bare numbers, in nM.

Req: GET /values?readout=Kd&item= CTGGCCTGG (dsDNA) DNA 1: CTGGCCTGG DNA 2: CCAGGCCAG
Resp: 0.388
